tested on: Saccharomyces cerevisiae; test: protein stability index of tFT-peptide fusion in wild type (PSI (0-1 scale)); higher = more stable (slower turnover); conditions: genetic background: wild type
endpoint-label: protein stability index

polymer_sequence=GLYMCSVICWFR result_number=0.231
polymer_sequence=RVTRLDNIYFRI result_number=0.484
polymer_sequence=LKILRQWMNHQN result_number=0.184
polymer_sequence=GLYMCAVGCWFR result_number=0.279

----------
test system: Saccharomyces cerevisiae; experiment: protein stability index of tFT-peptide fusion (C-terminal peptide) (PSI (0-1 scale)); higher = more stable (slower turnover); settings: genetic background: wild type; temperature: 30 C
endpoint-label: protein stability index

polymer_sequence=KRSNKGAKKKGK result_number=0.672
polymer_sequence=RGSLYLILVLIG result_number=0.269
polymer_sequence=PDYNEIIEYTEG result_number=0.706
polymer_sequence=FGVLLVWWYGLF result_number=0.289
polymer_sequence=SIPFWPVLFFLL result_number=0.14
polymer_sequence=PSLSPSPRITSS result_number=0.65
polymer_sequence=FFLDRLVIRLIA result_number=0.105
polymer_sequence=PLPPPPAPPLPP result_number=0.647
polymer_sequence=SVLAVSFLSLLV result_number=0.636
polymer_sequence=VGFYGRWVCVAC result_number=0.29
polymer_sequence=VGVTLSSFSRLP result_number=0.693
polymer_sequence=WFSRCVSLGLCW result_number=0.418
polymer_sequence=HYYYPSPPSSRH result_number=0.621
polymer_sequence=LHCPRICYSPHL result_number=0.715
polymer_sequence=YACFRYEYNRLR result_number=0.679
polymer_sequence=CEYPWGTVVRDG result_number=0.709

----------
test system: Saccharomyces cerevisiae; test: protein stability index of tFT-peptide fusion (C-terminal peptide) (PSI (0-1 scale)); higher = more stable (slower turnover); settings: genetic background: doa10 deletion; temperature: 30 C
endpoint-label: protein stability index

polymer_sequence=GWGVFFVMRIQV endpoint_label="protein stability index" result_number=0.197
polymer_sequence=GILLLLISRVVF endpoint_label="protein stability index" result_number=0.197
polymer_sequence=FPYARHLSVLLL endpoint_label="protein stability index" result_number=0.371
polymer_sequence=VAFGVASGWCWF endpoint_label="protein stability index" result_number=0.373
polymer_sequence=RYTWHGICIVTR endpoint_label="protein stability index" result_number=0.285
polymer_sequence=LIMIRLLYLRLI endpoint_label="protein stability index" result_number=0.105
polymer_sequence=AFSISPFRLRMV endpoint_label="protein stability index" result_number=0.249
polymer_sequence=PRLWLYCLIISL endpoint_label="protein stability index" result_number=0.157
polymer_sequence=FILSLSFVFSRP endpoint_label="protein stability index" result_number=0.452
polymer_sequence=LWFRGGYLFFVV endpoint_label="protein stability index" result_number=0.2
polymer_sequence=RKNSQKILKLSG endpoint_label="protein stability index" result_number=0.256
polymer_sequence=AHPTLILTNKIA endpoint_label="protein stability index" result_number=0.0637
polymer_sequence=WLFAILPSRLIA endpoint_label="protein stability index" result_number=0.0644
polymer_sequence=WCFFFVGCCCFG endpoint_label="protein stability index" result_number=0.479
polymer_sequence=FLAWSVGILCRV endpoint_label="protein stability index" result_number=0.213
polymer_sequence=RKQLSCIMIWCK endpoint_label="protein stability index" result_number=0.188
polymer_sequence=FSVLRLVIVSLL endpoint_label="protein stability index" result_number=0.0564
polymer_sequence=LFAIFLVVLLFR endpoint_label="protein stability index" result_number=0.297
polymer_sequence=GSLLNLSLRWLV endpoint_label="protein stability index" result_number=0.139

----------
test system: Saccharomyces cerevisiae; experiment: protein stability index of tFT-peptide fusion (C-terminal peptide) (PSI (0-1 scale)); higher = more stable (slower turnover); conditions: genetic background: wild type; temperature: 30 C
endpoint-label: protein stability index

polymer_sequence=TRTFRPPPALPH endpoint_label="protein stability index" result_number=0.691
polymer_sequence=SLPPSPPPPSLP endpoint_label="protein stability index" result_number=0.715
polymer_sequence=GWGPGGSERCGL endpoint_label="protein stability index" result_number=0.711
polymer_sequence=LADLSAPAPCLP endpoint_label="protein stability index" result_number=0.689
polymer_sequence=AGSSSLRGRLRG endpoint_label="protein stability index" result_number=0.69
polymer_sequence=GVAGGGTVVGAQ endpoint_label="protein stability index" result_number=0.693
polymer_sequence=VGGAAVGAGGGV endpoint_label="protein stability index" result_number=0.691

----------
tested on: Saccharomyces cerevisiae; experiment: protein stability index of tFT-peptide fusion (C-terminal peptide) (PSI (0-1 scale)); higher = more stable (slower turnover); details: genetic background: wild type; temperature: 30 C
endpoint-label: protein stability index

polymer_sequence=NDGSDYRFLSLK endpoint_label="protein stability index" result_number=0.706
polymer_sequence=VGEGGGEVMGEA endpoint_label="protein stability index" result_number=0.712
polymer_sequence=TPWGPGAAAAPP endpoint_label="protein stability index" result_number=0.684

----------
# maps each entry to its protein stability index
tested on: Saccharomyces cerevisiae; experiment: protein stability index of tFT-peptide fusion (C-terminal peptide) (PSI (0-1 scale)); higher = more stable (slower turnover); conditions: genetic background: wild type; temperature: 30 C
endpoint-label: protein stability index

polymer_sequence=RDTTQRRRKTAA result=0.448
polymer_sequence=VDGVSFFVVLLC result=0.198
polymer_sequence=VWFLLFVVWCGS result=0.204
polymer_sequence=WQIGIYILQGLA result=0.163

----------
test system: Saccharomyces cerevisiae; experiment: protein stability index of tFT-peptide fusion (C-terminal peptide) (PSI (0-1 scale)); higher = more stable (slower turnover); conditions: genetic background: wild type; temperature: 30 C
# maps each entry to its protein stability index
endpoint-label: protein stability index

polymer_sequence="QNARAAFKSTLV [YDR514C C-terminal 12 aa]" result_number=0.698
polymer_sequence="AQGGFAQWATGQ [APS3 C-terminal 12 aa]" result_number=0.683
polymer_sequence="KERIVLSNVRPM [TFC7 C-terminal 12 aa]" result_number=0.686
polymer_sequence="ALSCLGHSKIFI [YML094C-A C-terminal 12 aa]" result_number=0.706
polymer_sequence="YINDISRTWNAN [MNT3 C-terminal 12 aa]" result_number=0.679
polymer_sequence="QPSSASCLFILI [AHT1 C-terminal 12 aa]" result_number=0.696
polymer_sequence="HWLQLKPGQPMY [MF(ALPHA)1 C-terminal 12 aa]" result_number=0.682
polymer_sequence="SNRTLSNETDAL [ACE2 C-terminal 12 aa]" result_number=0.701
polymer_sequence="PKDLTSLLEWKE [CLA4 C-terminal 12 aa]" result_number=0.681
polymer_sequence="ESGPSIVHHKCF [ACT1 C-terminal 12 aa]" result_number=0.696

----------
tested on: Saccharomyces cerevisiae; assay: protein stability index of tFT-peptide fusion (C-terminal peptide) (PSI (0-1 scale)); higher = more stable (slower turnover); conditions: genetic background: wild type; temperature: 30 C
# maps each entry to its protein stability index
endpoint-label: protein stability index

polymer_sequence=RHPPPPPPALTP target_desc="Saccharomyces cerevisiae" result=0.707
polymer_sequence=VGLGRPAAAWRR target_desc="Saccharomyces cerevisiae" result=0.71
polymer_sequence=SFSACGEPVPPG target_desc="Saccharomyces cerevisiae" result=0.661
polymer_sequence=FVIVSSCIGYAL target_desc="Saccharomyces cerevisiae" result=0.499
polymer_sequence=PPLKPRTSRPTI target_desc="Saccharomyces cerevisiae" result=0.682
polymer_sequence=FWECEYVIDDVD target_desc="Saccharomyces cerevisiae" result=0.691
polymer_sequence=VEFGGICSYVGC target_desc="Saccharomyces cerevisiae" result=0.724
polymer_sequence=GSIWVVGWGQGV target_desc="Saccharomyces cerevisiae" result=0.711
polymer_sequence=YVALSTGPLRTP target_desc="Saccharomyces cerevisiae" result=0.683
polymer_sequence=HGGCLGGYGGGG target_desc="Saccharomyces cerevisiae" result=0.661
polymer_sequence=PTHSRQPPYLSL target_desc="Saccharomyces cerevisiae" result=0.684
polymer_sequence=NAFTMWVSRQAR target_desc="Saccharomyces cerevisiae" result=0.77
polymer_sequence=FFTVRLRGGRDC target_desc="Saccharomyces cerevisiae" result=0.649
polymer_sequence=PPPDRLPPAHLP target_desc="Saccharomyces cerevisiae" result=0.721
polymer_sequence=LGVLVVAFCGGC target_desc="Saccharomyces cerevisiae" result=0.409
polymer_sequence=VKGCKCGRIASY target_desc="Saccharomyces cerevisiae" result=0.669
polymer_sequence=PLALPLHLPLPP target_desc="Saccharomyces cerevisiae" result=0.667
polymer_sequence=VYCCVRSLRVAI target_desc="Saccharomyces cerevisiae" result=0.496
polymer_sequence=SCLPSDRLTYLP target_desc="Saccharomyces cerevisiae" result=0.714
polymer_sequence=LTSGTVLVLSSL target_desc="Saccharomyces cerevisiae" result=0.683
polymer_sequence=PPLRPPRPHQHS target_desc="Saccharomyces cerevisiae" result=0.636
polymer_sequence=SLRKRILCRFEY target_desc="Saccharomyces cerevisiae" result=0.511
polymer_sequence=VDLGAGVCSAVC target_desc="Saccharomyces cerevisiae" result=0.62
polymer_sequence=VVARFDTILLWS target_desc="Saccharomyces cerevisiae" result=0.608
polymer_sequence=FLLPILSSSPVL target_desc="Saccharomyces cerevisiae" result=0.727
polymer_sequence=EKTKEKKAKKYG target_desc="Saccharomyces cerevisiae" result=0.694
polymer_sequence=PPPPPPPPPPTL target_desc="Saccharomyces cerevisiae" result=0.712
polymer_sequence=GWFVVYQIGSEV target_desc="Saccharomyces cerevisiae" result=0.564
polymer_sequence=SLSRPASPPPHH target_desc="Saccharomyces cerevisiae" result=0.674
polymer_sequence=GGCYAGVAMRLI target_desc="Saccharomyces cerevisiae" result=0.76
polymer_sequence=LDSRSELGRGLK target_desc="Saccharomyces cerevisiae" result=0.714
polymer_sequence=AFCCRSPPSSHP target_desc="Saccharomyces cerevisiae" result=0.655
polymer_sequence=CKGIGLGGGVVS target_desc="Saccharomyces cerevisiae" result=0.599
polymer_sequence=ICFFQGVVVLFR target_desc="Saccharomyces cerevisiae" result=0.407
polymer_sequence=PRLPPPHRRPAP target_desc="Saccharomyces cerevisiae" result=0.759
polymer_sequence=RAGHREIARQKG target_desc="Saccharomyces cerevisiae" result=0.631
polymer_sequence=PPPDPPRHGRPE target_desc="Saccharomyces cerevisiae" result=0.684
polymer_sequence=IYEAFLVFCLCG target_desc="Saccharomyces cerevisiae" result=0.365
polymer_sequence=KVMSLACRLTSE target_desc="Saccharomyces cerevisiae" result=0.843
polymer_sequence=GRLFGVVSLCLL target_desc="Saccharomyces cerevisiae" result=0.647
polymer_sequence=SFLPPLFPHPPP target_desc="Saccharomyces cerevisiae" result=0.841
polymer_sequence=PGWPISNLGHAL target_desc="Saccharomyces cerevisiae" result=0.634
polymer_sequence=GGGRGVVVTCST target_desc="Saccharomyces cerevisiae" result=0.713
polymer_sequence=SFLRTRPHAPLP target_desc="Saccharomyces cerevisiae" result=0.636
polymer_sequence=SHICSFLGICHA target_desc="Saccharomyces cerevisiae" result=0.576
polymer_sequence=PPPPPPSPPLSP target_desc="Saccharomyces cerevisiae" result=0.677
polymer_sequence=KKQKKKKKRNRK target_desc="Saccharomyces cerevisiae" result=0.654
polymer_sequence=HHLPPRTPPHNS target_desc="Saccharomyces cerevisiae" result=0.657
polymer_sequence=SPPSPLRPPPPS target_desc="Saccharomyces cerevisiae" result=0.7
polymer_sequence=LGGPGAVWGRGR target_desc="Saccharomyces cerevisiae" result=0.697
polymer_sequence=GVSIGVLTGAWR target_desc="Saccharomyces cerevisiae" result=0.646
polymer_sequence=VFMVLLLGFRRF target_desc="Saccharomyces cerevisiae" result=0.549
polymer_sequence=PYSGSPRALPRP target_desc="Saccharomyces cerevisiae" result=0.716
polymer_sequence=VALTYRSAGKWA target_desc="Saccharomyces cerevisiae" result=0.693
polymer_sequence=VYDCDVRHFGQC target_desc="Saccharomyces cerevisiae" result=0.761
polymer_sequence=GQSGFGYVGSMK target_desc="Saccharomyces cerevisiae" result=0.669
polymer_sequence=QSQMEKGTIVWT target_desc="Saccharomyces cerevisiae" result=0.705
polymer_sequence=ALCSGCFAFLGA target_desc="Saccharomyces cerevisiae" result=0.676
polymer_sequence=TLFSPPVLATPS target_desc="Saccharomyces cerevisiae" result=0.0225
polymer_sequence=FAFVCLASILGS target_desc="Saccharomyces cerevisiae" result=0.531
polymer_sequence=LDGIKVKFRRSL target_desc="Saccharomyces cerevisiae" result=0.698
polymer_sequence=VFSLQCVSGIFV target_desc="Saccharomyces cerevisiae" result=0.568
polymer_sequence=IIVWVGAGLWGV target_desc="Saccharomyces cerevisiae" result=0.594
polymer_sequence=TLFSNILRSPHS target_desc="Saccharomyces cerevisiae" result=0.696
polymer_sequence=RYTWHGICIVTR target_desc="Saccharomyces cerevisiae" result=0.44
polymer_sequence=KQNAHKKINKYE target_desc="Saccharomyces cerevisiae" result=0.75
polymer_sequence=WKQEKYTFKKRT target_desc="Saccharomyces cerevisiae" result=0.707
polymer_sequence=PGQSSPLPPDVS target_desc="Saccharomyces cerevisiae" result=0.653
polymer_sequence=PPPAPRTPPLLP target_desc="Saccharomyces cerevisiae" result=0.736
polymer_sequence=RPAPSRTYLNLI target_desc="Saccharomyces cerevisiae" result=0.674
polymer_sequence=LPSPPPAPTPGP target_desc="Saccharomyces cerevisiae" result=0.681
